Assay: self-splicing fitness, log relative to wild type (ln ratio); higher = more splicing; Tetrahymena group I intron in knt gene, E. coli kanamycin selection, DiMSum; sequences stand for … in CUCUCU…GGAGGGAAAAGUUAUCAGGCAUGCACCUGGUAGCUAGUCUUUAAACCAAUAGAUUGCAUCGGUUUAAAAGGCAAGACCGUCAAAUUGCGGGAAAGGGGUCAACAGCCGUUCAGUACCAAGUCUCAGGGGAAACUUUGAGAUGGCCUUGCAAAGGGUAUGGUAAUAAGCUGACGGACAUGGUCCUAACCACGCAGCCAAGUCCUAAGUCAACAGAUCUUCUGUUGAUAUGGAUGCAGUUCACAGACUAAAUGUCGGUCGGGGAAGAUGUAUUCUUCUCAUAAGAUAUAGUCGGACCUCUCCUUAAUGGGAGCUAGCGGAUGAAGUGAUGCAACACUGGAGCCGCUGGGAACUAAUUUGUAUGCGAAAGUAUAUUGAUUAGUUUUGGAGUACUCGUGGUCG;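 note: selection with 25 µg/mL kanamycin versus none on LB agar overnight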
Condition parameters: 37 °C
Given measured self-splicing fitness (ln), output 1 if it is greater than or equal to -2 and -1 if not.

Solved entries (count: 6):
# Chain, Label class
data = [
    ("UGGAAGCAAUAUUACGCGUC", 1),
    ("CAACAGCAAUAUUACGCCAC", -1),
    ("CUGUAGCAAUAUUACGACUC", 1),
    ("AUGGAGCAAUAUUACGCGGU", -1),
    ("GUAUAGCAAUAUUACGGUGG", -1),
    ("GUAAAGCAAUAUUACGGCGA", 1),
]

### Prompt Assess whether reported self-splicing fitness (ln) for AUGCAGCAAUAUUACGAAUA sits at -2 or higher.
### Response 1

### Prompt Assess whether reported self-splicing fitness (ln) for CGACAGCAAUAUUACGCCUA sits at -2 or higher.
### Response 1

### Prompt Assess whether reported self-splicing fitness (ln) for UUACAGCAAUAUUACGCCAC sits at -2 or higher.
### Response -1

### Prompt Assess whether reported self-splicing fitness (ln) for GGAUAGCAAUAUUACGUAGG sits at -2 or higher.
### Response 1

### Prompt Assess whether reported self-splicing fitness (ln) for UGUGAGCAAUAUUACGACUU sits at -2 or higher.
### Response -1

### Prompt Assess whether reported self-splicing fitness (ln) for CCAAAGCAAUAUUACGACCG sits at -2 or higher.
### Response 1

### Prompt Assess whether reported self-splicing fitness (ln) for GACGAGCAAUAUUACGACCC sits at -2 or higher.
### Response 1

### Prompt Assess whether reported self-splicing fitness (ln) for UUACAGCAAUAUUACGUUGA sits at -2 or higher.
### Response 1

### Prompt Assess whether reported self-splicing fitness (ln) for GACAAGCAAUAUUACGAUGG sits at -2 or higher.
### Response -1

### Prompt Assess whether reported self-splicing fitness (ln) for CGUCAGCAAUAUUACGAGAU sits at -2 or higher.
### Response -1

### Prompt Assess whether reported self-splicing fitness (ln) for CGUGAGCAAUAUUACGGUAG sits at -2 or higher.
### Response 1

### Prompt Assess whether reported self-splicing fitness (ln) for CUCCAGCAAUAUUACGGGGA sits at -2 or higher.
### Response 1

### Prompt Assess whether reported self-splicing fitness (ln) for AGUGAGCAAUAUUACGGGGG sits at -2 or higher.
### Response -1

### Prompt Assess whether reported self-splicing fitness (ln) for GAGGAGCAAUAUUACGCUUG sits at -2 or higher.
### Response 1

###

Assay: self-splicing fitness, log relative to wild type (ln ratio); higher = more splicing; Tetrahymena group I intron in knt gene, E. coli kanamycin selection, DiMSum; sequences stand for … in CUCUCU…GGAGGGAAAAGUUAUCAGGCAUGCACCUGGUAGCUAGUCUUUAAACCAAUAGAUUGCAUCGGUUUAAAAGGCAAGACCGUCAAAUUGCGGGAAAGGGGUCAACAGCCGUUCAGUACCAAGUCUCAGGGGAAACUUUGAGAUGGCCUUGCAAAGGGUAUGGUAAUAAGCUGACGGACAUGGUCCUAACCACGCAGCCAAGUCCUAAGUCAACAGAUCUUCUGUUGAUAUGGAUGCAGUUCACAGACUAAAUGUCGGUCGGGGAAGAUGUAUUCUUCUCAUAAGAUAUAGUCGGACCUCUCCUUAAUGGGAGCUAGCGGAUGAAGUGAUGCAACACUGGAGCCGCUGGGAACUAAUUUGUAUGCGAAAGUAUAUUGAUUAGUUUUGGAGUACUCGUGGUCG
Condition parameters: 30 °C
Readout type: self-splicing fitness (ln)
Answers are plain numbers.

Some solved cases for reference:
# Chain, self-splicing fitness (ln)
rows = [
    ("AAGUAGCAAUAUUACGGAAA", -2.49),
    ("CCUGAGCAAUAUUACGGGCA", -2.93),
    ("GUAUAGCAAUAUUACGAGCU", -2.42),
    ("UUAAAGCAAUAUUACGCGCA", -0.137),
    ("ACCAAGCAAUAUUACGAUCC", -1.83),
]

Hey, can you go through the list below and give me self-splicing fitness (ln) for every item?
1. AAUCAGCAAUAUUACGAAGU
2. ACCGAGCAAUAUUACGGAUU
3. GCAUAGCAAUAUUACGAUAG
4. AGGAAGCAAUAUUACGUAUC

### Response
-0.414
-3.51
-3.12
-3.45

Hey, can you go through the list below and give me self-splicing fitness (ln) for every item?
1. UUUCAGCAAUAUUACGGAAA
2. GAGAAGCAAUAUUACGCAAG
3. UGUCAGCAAUAUUACGUGAG
4. UAAUAGCAAUAUUACGAUGU
5. UGUGAGCAAUAUUACGGGAG
6. AUUAAGCAAUAUUACGCCUG

### Response
-2.7
-1.6
-0.0851
-2.78
-2.52
-0.765

Hey, can you go through the list below and give me self-splicing fitness (ln) for every item?
1. AAGAAGCAAUAUUACGUAUU
2. CAGCAGCAAUAUUACGUAGA
3. GCGGAGCAAUAUUACGUAGG
4. GAACAGCAAUAUUACGUCAG
5. GGAUAGCAAUAUUACGUCCU
6. GUUAAGCAAUAUUACGGGCG

### Response
1. -2.28
2. -2.13
3. -4.18
4. -2.51
5. -3.13
6. -1.44

###

Please go through the items and note down their self-splicing fitness (ln).
Assay: self-splicing fitness, log relative to wild type (ln ratio); higher = more splicing; Tetrahymena group I intron in knt gene, E. coli kanamycin selection, DiMSum; sequences stand for … in CUCUCU…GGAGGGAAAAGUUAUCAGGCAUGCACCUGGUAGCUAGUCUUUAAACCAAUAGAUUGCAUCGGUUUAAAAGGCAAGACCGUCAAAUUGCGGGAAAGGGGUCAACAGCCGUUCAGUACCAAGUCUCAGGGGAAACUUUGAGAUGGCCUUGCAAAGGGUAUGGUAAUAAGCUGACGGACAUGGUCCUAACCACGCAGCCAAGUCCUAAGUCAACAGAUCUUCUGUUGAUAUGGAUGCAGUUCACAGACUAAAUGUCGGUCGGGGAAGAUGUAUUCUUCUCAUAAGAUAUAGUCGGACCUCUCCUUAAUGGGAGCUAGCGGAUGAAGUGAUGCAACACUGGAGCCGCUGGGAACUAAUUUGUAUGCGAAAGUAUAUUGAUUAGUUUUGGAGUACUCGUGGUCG
Condition parameters: 30 °C
One number for each entry.

# Chain, self-splicing fitness (ln)
rows = [
    ("UGAGAGCAAUAUUACGAAUG", -2.97),
]

Hey, can you go through the list below and give me self-splicing fitness (ln) for every item?
1. ACCGAGCAAUAUUACGGAAA
2. UCCGAGCAAUAUUACGGGAA
3. UUUUAGCAAUAUUACGCGGA

### Response
1: -2.92; 2: -3.05; 3: -2

###

Please go through the items and note down their self-splicing fitness (ln).
Assay: self-splicing fitness, log relative to wild type (ln ratio); higher = more splicing; Tetrahymena group I intron in knt gene, E. coli kanamycin selection, DiMSum; sequences stand for … in CUCUCU…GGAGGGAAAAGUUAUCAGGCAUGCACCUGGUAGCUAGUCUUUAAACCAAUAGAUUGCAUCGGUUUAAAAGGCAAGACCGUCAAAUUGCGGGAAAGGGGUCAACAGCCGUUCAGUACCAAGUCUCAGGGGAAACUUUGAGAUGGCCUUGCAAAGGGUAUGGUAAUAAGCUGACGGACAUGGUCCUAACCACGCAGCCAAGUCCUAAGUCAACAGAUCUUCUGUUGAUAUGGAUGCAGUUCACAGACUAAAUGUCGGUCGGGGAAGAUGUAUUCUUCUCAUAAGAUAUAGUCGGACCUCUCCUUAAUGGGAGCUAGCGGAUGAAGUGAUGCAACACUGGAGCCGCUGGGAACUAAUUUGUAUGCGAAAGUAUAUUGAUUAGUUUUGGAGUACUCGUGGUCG
Condition parameters: 37 °C

Some solved cases for reference:
# Chain, self-splicing fitness (ln)
measured = [
    ("UGUCAGCAAUAUUACGCCAU", -1.98),
    ("CCGGAGCAAUAUUACGAAGA", -1.97),
]

Now consider a different sequence.
Value of measured self-splicing fitness (ln) for the entry UUUUAGCAAUAUUACGUUAG : -2.02
